Attribute: B cell reactivity (mean linear fluorescence intensity)
- TARGET_OR_SYSTEM: T1, mouse CD20 (mouse, UniProt P19437 1-291)
- T1 construct: whole, on cells; Endogenous mouse CD20 on primary B cells; also called cell-surface CD20
- T1 sequence (looked up): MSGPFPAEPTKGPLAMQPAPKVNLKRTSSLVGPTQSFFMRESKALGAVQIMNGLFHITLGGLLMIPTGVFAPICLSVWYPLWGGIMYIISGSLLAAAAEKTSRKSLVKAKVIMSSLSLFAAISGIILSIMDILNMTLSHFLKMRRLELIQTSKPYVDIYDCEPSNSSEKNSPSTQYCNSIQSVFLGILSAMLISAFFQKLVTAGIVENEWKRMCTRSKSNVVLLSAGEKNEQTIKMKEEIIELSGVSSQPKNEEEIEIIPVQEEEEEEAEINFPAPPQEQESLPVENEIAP
- PROTOCOL_NOTES: flow cytometry, mouse spleen CD19+ B cells, mAb at 0.5 µg/mL, isotype-specific secondary antibody
PROPERTY: B cell reactivity (mean linear fluorescence intensity)

- BINDER: "MB20-18 monoclonal antibody (antibody, V domains shown, Mouse anti-mouse CD20 hybridoma antibody, IgG2b) VH: EVQLQESGLDLVKPGASVKISCKASGYTFTDYYMKWVKQSHGKSLDWIGDINPNNGDIIYNQKFEGKATLTVDKSSSTAYMELRSLTSEDSAVYYCARERFAYWGQGTLVTVSA VL: SIVMTQTPKFLLVSTGDRVTITCKASQTVTNDLAWYQQKPGQSPKLLIYYASNRYTGVPDRFTGSGYGTDFTFTINTVQAEDLAVYFCQQDYSSPLTFGAGTKLELKR"
  MEASUREMENT: "729 mean linear fluorescence intensity"
- BINDER: "MB20-1 monoclonal antibody (antibody, V domains shown, Mouse anti-mouse CD20 hybridoma antibody, IgG1; also called MB20-01) VH: EVQLQESGGGLVQPGGSLKLSCAASGFTFSDYGMAWVRQAPRKGPEWVAFISNLAYSIYYADTVTGRFTISRENAKNTLYLEMSSLRSEDTAMYFCTRTGYYALDYWGQGTSVTVSS VL: NIMMTQSPSSLAVSAGEKVTMRCKSSQSVLYSSKRKNYLAWYQQKPGKSPTLLIYWASTRESGVPDRFTGSGSGTDFTLTITSVQAEDLAVYYCHQYLSSFTFGGGTKLEIKR"
  MEASUREMENT: "69 mean linear fluorescence intensity"
- BINDER: "MB20-14 monoclonal antibody (antibody, V domains shown, Mouse anti-mouse CD20 hybridoma antibody, IgG1) VH: EVQLQESGPELVKPGASVKISCKASGYMFTDYYIKWVKQSHGKSLEWIGDINPNNGDTIYNQKFKGKATLTVDKSSNTAYMDLRILTSEDSAVYYCARERFAYWGQGTLVTVSA VL: EIVLTQSPTTMAASPGEKITITCSVSSSIRSNYLHWYQQKPGFSPKLLIYRTSNLASGVPARFSGSGSGTSYSLTVATMEAEDVATYYCQQGSSIPLTFGAGTKLELKR"
  MEASUREMENT: "166 mean linear fluorescence intensity"
- BINDER: "MB20-7 monoclonal antibody (antibody, V domains shown, Mouse anti-mouse CD20 hybridoma antibody, IgG2b; also called MB20-07) VH: EVQLQESGPDLVKPGASVKISCKASGYMFTDYYMKWVKQSHGKSLEWIGDINPNNGDTTYNQKFEGKATLTVDKSSSTAYMELRSLTSEDSAVYYCARERFAYWGQGTLVTVSA VL: ELVLTQSPTTKAASPGEKITITCSVSSSIRSNYLHWYQQRPGFSPKLLIYRTSNLASGVPARFSGSGSGTSYSLTIGTMEAEDVATYYCQQGSSLPLTFGAGTKLELKR"
  MEASUREMENT: "525 mean linear fluorescence intensity"
- BINDER: "MB20-8 monoclonal antibody (antibody, V domains shown, Mouse anti-mouse CD20 hybridoma antibody, IgG2b; also called MB20-08) VH: EVQLQESGPDLVKPGASVKISCKASGYTFTDYYMKWVKQSHGKSLDWIGDINPNNGDIIYNQKFEGKATLTVDKSSSTAYMELRSLTSEDSAVYYCARERFAYWGQGTLVTVSA VL: EIVLTQSPTTMAASPGEKITITCSVSSNIRSNYLHWYQQKPGFSPKLLIYRTSNLASGVPARFSGSGSGTSYSLTIGTMKAEDVATYYCQQGSSIPLTFGAGTKLELKR"
  MEASUREMENT: "240 mean linear fluorescence intensity"
